PROPERTY MEASURED: melting point

Known results for molecules:
>>> reported("COc1cccc(OC)c1Cl")
"69 to 71 °C"
>>> reported("CNC(=O)c1cc(-c2ccc(OC)cc2)nn(CC(=O)Nc2ccc(SC)cc2)c1=O")
"231 to 232 °C"
>>> reported("COC(=N)NC(=O)Nc1ccc(Cl)cc1")
"115 to 117 °C"
>>> reported("CCc1cc(CNc2nc3ccccc3o2)c(=S)[nH]c1C")
"238 to 240 °C"
>>> reported("O=C1C(=NO)Nc2c(Br)cccc21")
"> 250 °C"

Query string: Which melting point value is on record for "COc1ccc2c(c1)Sc1cc(OC(C)=O)c(OC)cc1N2" ?
Result string: 172 to 174 °C

Query string: Which melting point value is on record for "COC(=O)CCSCc1csc(NC(N)=NCC(F)(F)F)n1" ?
Result string: 96 to 98 °C

Query string: Which melting point value is on record for "CCOC(=O)c1c(C(F)(F)F)nc(OCC)c(C(N)=O)c1OCC" ?
Result string: 103 to 105 °C

Where do the numbers come from? From a melting point compilation (Tetko et al.; mined from patent text by program, amines drawn as free bases though some values may be those of a salt).
